tested on: PNAG conjugates on the array (dPNAG, PNAG and intermediate levels of deacetylation); assay: Neoglycoprotein (glycan) microarray binding, 816-component array; settings: ability to bind both dPNAG and PNAG and intermediate levels of deacetylation
QUANTITY_KIND: PNAG Binding on Array

TG10 LC D116A: TG10 HC (SEQ ID NO: 3) with TG10 LC D116A (SEQ ID NO: 49) (antibody, V domains shown, TG10 Heavy Chain Variable Region; Site directed mutatation of TG10 HC Variable Region) VH: EVQLVESGGGLVQPGGSLRLSCAVSGFPFSSYWMSWVRQAPGKGLEWVANIKEDGSEKYYVDSVKGRFTISRDNAKNSLYLQMNSLRAEDTAVYYCATDPDVGLSDSWGQGTLVTVSS VL: EIVLTQSPGTLSLSPGDRATHSCRASQSVSRSYLAWYQQKPGQTPRLFIYGASNRATGIPDRFSGSGSGTYFTLTISRLEPEDFAVYYCQQYDSAPATFGQGTRLEIK    No
120 × TG: 1467120 HC (SEQ ID NO: 45) with TG10 LC (SEQ ID NO: 12) (antibody, V domains shown, Based on an antibody sequence.; TG10 Light Chain Variable Region) VH: QVQLVESGGGLVQPGGSLRLSCAASGFTFSSYWMSWVRQAPGKGLEWVANIKQDGSEKYYVDSVKGRFTISRDNAKNSLYLQMNSLRAEDTAVYYCARDPEGGLPDYWGQGTLVTVSS VL: EIVLTQSPGTLSLSPGDRATHSCRASQSVSRSYLAWYQQKPGQTPRLFIYGASNRATGIPDRFSGSGSGTYFTLTISRLEPEDFAVYYCQQYDSAPDTFGQGTRLEIK    No
TG10 LC Y55A: TG10 HC (SEQ ID NO: 3) with TG10 LC Y55A (SEQ ID NO: 40) (antibody, V domains shown, TG10 Heavy Chain Variable Region; Site directed mutation of TG10 LC Variable Region) VH: EVQLVESGGGLVQPGGSLRLSCAVSGFPFSSYWMSWVRQAPGKGLEWVANIKEDGSEKYYVDSVKGRFTISRDNAKNSLYLQMNSLRAEDTAVYYCATDPDVGLSDSWGQGTLVTVSS VL: EIVLTQSPGTLSLSPGDRATHSCRASQSVSRSYLAWYQQKPGQTPRLFIAGASNRATGIPDRFSGSGSGTYFTLTISRLEPEDFAVYYCQQYDSAPDTFGQGTRLEIK    Yes
ADI-45379: Original clone from screen; HC SEQ ID NO: 1, LC SEQ ID NO: 2 (antibody, listed as Homo sapiens, V domains shown) VH: EVQLLESGGGLVQPGGSLRLSCAVSGFPFSSYWMSWVRQAPGKGLEWVANIKEDGSEKYYVDSVKGRFTISRDNAKNSLYLQMNSLRAEDTAVYYCATDPDVGLSDSWGQGTLVTVSS VL: ETTLTQSPATLSLSPGDRATHSCRASQSVSRSYLAWYQQKPGQTPRLFIYGASNRATGIPDRFSGSGSGTYFTLTISRLEPEDFAVYYCQQYDSAPDTFGQGTRLEIK    Yes
